B1: library; a variant is named by its letters at X, in order (parent)
chain: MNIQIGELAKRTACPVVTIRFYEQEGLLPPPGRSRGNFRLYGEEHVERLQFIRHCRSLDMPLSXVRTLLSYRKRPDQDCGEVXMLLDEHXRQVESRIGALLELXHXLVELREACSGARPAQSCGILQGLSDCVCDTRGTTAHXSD

- Variants of: B1
- ASSAY_SUMMARY: sfGFP reporter fluorescence (15 h) (µM FITC); higher = stronger transcriptional activation
- TEST_CONTEXT: library round: Round 3b; ligand: 1 µM Pb
Give measured sfGFP reporter fluorescence for each item. Keep answers brief.
Enter a number only.

Ask | What measured sfGFP reporter fluorescence goes with `KNAVET` ?
Reply | 0.261

Ask | Another: `KIAVHT`
Reply | 0.924

Ask | Another: `KIATAT`
Reply | 1.29

Ask | Another: `KFAVEP`
Reply | 0.533

Ask | Another: `DFAVER`
Reply | 0.0506

Ask | Another: `KIATER`
Reply | 1.25

Ask | Another: `DNIKHP`
Reply | 0.0535

Ask | Another: `KNAKER`
Reply | 0.296

Ask | Another: `DFAVEP`
Reply | 0.0531

Ask | Another: `KNAKET`
Reply | 0.248

Ask | Another: `DFITER`
Reply | 0.0522

Ask | Another: `KIITHR`
Reply | 0.485

Ask | Another: `KNATAT`
Reply | 0.305

Ask | Another: `KFAKAT`
Reply | 0.564
